Record form. Attribute: kon. Fill in for each entry.
# measured_on: T1, hNPR1-mFc:hANP or hNPR1-hFc:hANP complex (human, UniProt P01160 124-151)
# T1 construct: also called human NPR1 complexed to ANP
# measurement_description: SPR, mAb captured, 37C
Give me the value, and tack the unit on after it.

Provide kon value for the following binder: mAb22805 (antibody, human IgG4, V domains shown) VH: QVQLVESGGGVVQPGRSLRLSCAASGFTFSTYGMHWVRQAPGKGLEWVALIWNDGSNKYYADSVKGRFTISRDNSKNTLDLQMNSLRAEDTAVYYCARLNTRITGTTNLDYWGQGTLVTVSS VL: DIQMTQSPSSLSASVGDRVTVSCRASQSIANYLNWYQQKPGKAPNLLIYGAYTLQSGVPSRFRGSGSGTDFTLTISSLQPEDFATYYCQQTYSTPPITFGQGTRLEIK
60100 M⁻¹ s⁻¹

Provide kon value for the following binder: mAb25497 (antibody, human IgG4, V domains shown) VH: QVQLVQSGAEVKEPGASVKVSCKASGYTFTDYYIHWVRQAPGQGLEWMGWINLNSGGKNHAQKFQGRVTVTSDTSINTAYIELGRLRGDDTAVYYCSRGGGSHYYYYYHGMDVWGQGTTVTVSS VL: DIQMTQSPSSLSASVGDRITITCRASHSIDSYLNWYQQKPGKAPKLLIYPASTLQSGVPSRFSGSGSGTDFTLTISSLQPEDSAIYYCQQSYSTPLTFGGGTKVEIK
48500 M⁻¹ s⁻¹

Provide kon value for the following binder: mAb25502 (antibody, human IgG4, V domains shown) VH: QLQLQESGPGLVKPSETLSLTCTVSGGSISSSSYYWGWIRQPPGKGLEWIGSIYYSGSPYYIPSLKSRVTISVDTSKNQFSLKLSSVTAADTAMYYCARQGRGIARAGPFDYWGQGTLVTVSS VL: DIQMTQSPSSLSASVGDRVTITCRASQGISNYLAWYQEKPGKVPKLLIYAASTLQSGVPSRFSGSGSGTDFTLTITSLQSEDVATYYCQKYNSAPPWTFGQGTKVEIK
72000 M⁻¹ s⁻¹
